Reference for the values: ChEMBL document CHEMBL1136792

Molecular target: Sigma non-opioid intracellular receptor 1 (Homo sapiens)
Assay: Relative affinity for sigma-2 over sigma-1 receptors
quantity_kind: Ratio
I only need the number, thanks.

| molecule_smiles | assayed_target | Ratio |
| --- | --- | --- |
| CC1CCN(C[C@@H](C)COc2ccc(Cl)cc2)CC1 | Sigma non-opioid intracellular receptor 1 (Homo sapiens) | 36 |

Task item: Which Ratio is listed for CC1CCN(C[C@H](C)COc2ccc(Cl)cc2)CC1 ?
Reply: 37

Task item: Which Ratio is listed for CC1CCN([C@H](C)COc2ccc(Cl)cc2)CC1 ?
Reply: 44

Task item: Which Ratio is listed for CC1CCN([C@@H](C)COc2ccc(Cl)cc2)CC1 ?
Reply: 547
